For each of the sequences below, state its shrunken log2 fold change.
system: Escherichia coli TOP10; experiment: shrunken log2 fold change of peptide-encoding DNA abundance (4.5 h post-induction vs induction); higher = less antimicrobial activity (less host growth inhibition); settings: time post-induction: 4.5 h; library: site-saturation at positions 5, 18, 19, 20
One number for each entry.

-- ask Would you mind telling me what shrunken log2 fold change value was observed for RRIRQRPPRLPRPRPRPECVPRP ?
-- reply 0.386

-- ask Give the measured shrunken log2 fold change of RRIRERPPRLPRPRPRPLWPPRP .
-- reply 0.0539

-- ask Given the sequence RRIRCRPPRLPRPRPRPNMRPRP , what is its reported shrunken log2 fold change?
-- reply 0.357

-- ask Which shrunken log2 fold change value belongs to RRIRWRPPRLPRPRPRPWITPRP ?
-- reply -0.0174

-- ask Name the recorded shrunken log2 fold change for RRIRTRPPRLPRPRPRPGFNPRP .
-- reply -0.234

-- ask Given the sequence RRIRVRPPRLPRPRPRPAREPRP , what is its reported shrunken log2 fold change?
-- reply 0.254

-- ask What value of measured shrunken log2 fold change is listed for RRIRWRPPRLPRPRPRPPLYPRP ?
-- reply 0.188

With those in mind, consider the next sequence.
-- ask Entry RRIRNRPPRLPRPRPRPSVEPRP : reported shrunken log2 fold change = ?
-- reply -0.254

====

I'd appreciate it if you could supply shrunken log2 fold change values for the items below.
system: Escherichia coli TOP10; experiment: shrunken log2 fold change of peptide-encoding DNA abundance (4.5 h post-induction vs induction); higher = less antimicrobial activity (less host growth inhibition); details: time post-induction: 4.5 h; library: site-saturation at positions 5, 18, 19, 20

Some entries whose results are on file:
-- ask What is its shrunken log2 fold change for Escherichia coli TOP10? Entry: RRIRWRPPRLPRPRPRPGVCPRP
-- reply 0.681

-- ask Lab request: please report shrunken log2 fold change under test system Escherichia coli TOP10 for RRIRERPPRLPRPRPRPDIMPRP
-- reply -0.196

-- ask Could you share what shrunken log2 fold change was measured for RRIRHRPPRLPRPRPRPGPIPRP , tested on Escherichia coli TOP10?
-- reply -0.133

-- ask Please provide the recorded shrunken log2 fold change for RRIRERPPRLPRPRPRPEDGPRP , tested on Escherichia coli TOP10.
-- reply -0.0324

Working through the 2 sequences below one at a time, give shrunken log2 fold change for each.
1. RRIRGRPPRLPRPRPRPYEFPRP
2. RRIRMRPPRLPRPRPRPNHEPRP

-- reply
[-0.0878, 0.0645]

====

system: Escherichia coli TOP10; assay: shrunken log2 fold change of peptide-encoding DNA abundance (4.5 h post-induction vs induction); higher = less antimicrobial activity (less host growth inhibition); conditions: time post-induction: 4.5 h; library: site-saturation at positions 5, 18, 19, 20
Decision: shrunken log2 fold change >= -0.1 yields Condition met, all other cases yield Condition not met.

-- ask Please indicate if the recorded shrunken log2 fold change for RRIRQRPPRLPRPRPRPHRWPRP meets or exceeds -0.1.
-- reply Condition met

-- ask Please indicate if the recorded shrunken log2 fold change for RRIRVRPPRLPRPRPRPWYWPRP meets or exceeds -0.1.
-- reply Condition not met

-- ask Is reported shrunken log2 fold change greater than or equal to -0.1 here: RRIRKRPPRLPRPRPRPKYYPRP
-- reply Condition met

-- ask // inclusive: shrunken log2 fold change at least -0.1? input: RRIRERPPRLPRPRPRPGTTPRP
-- reply Condition not met

-- ask Does the reported shrunken log2 fold change for RRIRWRPPRLPRPRPRPTFVPRP fall at or above the -0.1 mark?
-- reply Condition not met

***
-- ask Given RRIRWRPPRLPRPRPRPHADPRP , state whether its shrunken log2 fold change is at least -0.1.
-- reply Condition met

-- ask Test whether the sequence RRIRSRPPRLPRPRPRPSEMPRP records shrunken log2 fold change of -0.1 or higher.
-- reply Condition not met

-- ask // inclusive: shrunken log2 fold change at least -0.1? input: RRIRHRPPRLPRPRPRPDGNPRP
-- reply Condition not met

-- ask Reported shrunken log2 fold change at or above -0.1? RRIRIRPPRLPRPRPRPRTVPRP
-- reply Condition not met

-- ask Entry RRIRQRPPRLPRPRPRPKLKPRP : is its shrunken log2 fold change no less than -0.1?
-- reply Condition met

====

system: Escherichia coli TOP10; assay: shrunken log2 fold change of peptide-encoding DNA abundance (4.5 h post-induction vs induction); higher = less antimicrobial activity (less host growth inhibition); details: time post-induction: 4.5 h; library: site-saturation at positions 5, 18, 19, 20
Response key: Met means shrunken log2 fold change >= 0.07; Not met means shrunken log2 fold change < 0.07.

-- ask Could you verify whether the entry RRIRLRPPRLPRPRPRPGNAPRP shows shrunken log2 fold change of no less than 0.07?
-- reply Not met

-- ask Does RRIRQRPPRLPRPRPRPQGCPRP have a reported shrunken log2 fold change of at least 0.07?
-- reply Not met

-- ask Assess whether reported shrunken log2 fold change for RRIRERPPRLPRPRPRPELSPRP sits at 0.07 or higher.
-- reply Met

-- ask Quick check: does RRIRVRPPRLPRPRPRPGGFPRP have shrunken log2 fold change greater than or equal to 0.07?
-- reply Met

***
-- ask Item RRIRERPPRLPRPRPRPLEFPRP with shrunken log2 fold change of 0.07 or above?
-- reply Not met

====

I'd appreciate it if you could supply shrunken log2 fold change values for the items below.
test system: Escherichia coli TOP10; experiment: shrunken log2 fold change of peptide-encoding DNA abundance (4.5 h post-induction vs induction); higher = less antimicrobial activity (less host growth inhibition); settings: time post-induction: 4.5 h; library: site-saturation at positions 5, 18, 19, 20

Consider the worked cases shown below.
-- ask Can you share its shrunken log2 fold change? I mean this sequence: RRIRQRPPRLPRPRPRPEPFPRP
-- reply -0.00936

-- ask If you can, please state the reported shrunken log2 fold change value of RRIRVRPPRLPRPRPRPVHRPRP .
-- reply 0.164

-- ask Which shrunken log2 fold change is reported for this sequence? RRIRLRPPRLPRPRPRPMGFPRP
-- reply -0.159

-- ask Bench note: what shrunken log2 fold change did RRIRMRPPRLPRPRPRPTRVPRP show?
-- reply 0.25

-- ask Which shrunken log2 fold change reading was recorded for the sequence RRIRFRPPRLPRPRPRPVLGPRP ?
-- reply -0.127

-- ask State the recorded shrunken log2 fold change for this entry: RRIRIRPPRLPRPRPRPRLFPRP
-- reply 0.0705

-- ask Bench note: what shrunken log2 fold change did RRIRLRPPRLPRPRPRPNEHPRP show?
-- reply -0.175

-- ask # input sequence: RRIRARPPRLPRPRPRPWIKPRP ; wanted: its shrunken log2 fold change
-- reply -0.0328

-- ask Consider the sequence shown here: RRIRSRPPRLPRPRPRPWPNPRP What is its recorded shrunken log2 fold change?
-- reply -0.13

Next:
-- ask Given RRIRFRPPRLPRPRPRPPQGPRP , state its recorded shrunken log2 fold change.
-- reply 0.171

====

tested on: Escherichia coli TOP10; assay: shrunken log2 fold change of peptide-encoding DNA abundance (4.5 h post-induction vs induction); higher = less antimicrobial activity (less host growth inhibition); settings: time post-induction: 4.5 h; library: site-saturation at positions 5, 18, 19, 20
Parameter threshold = 0.2. Response is satisfied when shrunken log2 fold change meets or exceeds it, else not satisfied.

-- ask Decide: shrunken log2 fold change of RRIRSRPPRLPRPRPRPELMPRP >= 0.2?
-- reply satisfied

-- ask Is reported shrunken log2 fold change greater than or equal to 0.2 here: RRIRKRPPRLPRPRPRPAFIPRP
-- reply not satisfied

-- ask Decide: shrunken log2 fold change of RRIRERPPRLPRPRPRPRCTPRP >= 0.2?
-- reply not satisfied

New cases:
-- ask Does the sequence RRIRHRPPRLPRPRPRPPYFPRP have recorded shrunken log2 fold change that is 0.2 or more?
-- reply not satisfied

-- ask Answer whether shrunken log2 fold change of RRIRRRPPRLPRPRPRPLQTPRP is greater than or equal to 0.2.
-- reply satisfied

====

Can you tell me shrunken log2 fold change for the items I'm about to list?
test system: Escherichia coli TOP10; assay: shrunken log2 fold change of peptide-encoding DNA abundance (4.5 h post-induction vs induction); higher = less antimicrobial activity (less host growth inhibition); conditions: time post-induction: 4.5 h; library: site-saturation at positions 5, 18, 19, 20;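 further: peptides expressed intracellularly from a pBAD plasmid library in pooled LB shake-flask culture, induced with 0.3% L-arabinose, DNA abundance read by NGS, three biological replicates, DESeq2 with apeglm shrinkage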

Example cases with answers are listed next.
-- ask Given RRIRSRPPRLPRPRPRPWGYPRP , state its recorded shrunken log2 fold change.
-- reply -0.226

-- ask Using the record for RRIRPRPPRLPRPRPRPSTVPRP , report its shrunken log2 fold change.
-- reply -0.687

-- ask Data request, read-out shrunken log2 fold change, for RRIRWRPPRLPRPRPRPHGPPRP
-- reply 0.0026

-- ask Would you mind telling me what shrunken log2 fold change value was observed for RRIRDRPPRLPRPRPRPGITPRP ?
-- reply 0.297

-- ask Recorded shrunken log2 fold change for RRIRWRPPRLPRPRPRPTDKPRP , please?
-- reply -0.0481

-- ask So what does the record say about shrunken log2 fold change for RRIRCRPPRLPRPRPRPEIGPRP ?
-- reply -0.237

Provide each entry's shrunken log2 fold change from the list below.
1. RRIRDRPPRLPRPRPRPIWWPRP
2. RRIRERPPRLPRPRPRPGTVPRP
3. RRIRRRPPRLPRPRPRPNSMPRP

-- reply
1. 0.498
2. -0.973
3. -0.233

Provide shrunken log2 fold change for all items below, preserving their order.
1. RRIRDRPPRLPRPRPRPAHPPRP
2. RRIRGRPPRLPRPRPRPCEVPRP
3. RRIRDRPPRLPRPRPRPANHPRP

-- reply
1. -0.203
2. 0.0371
3. -0.438
